This collection of values is drawn from patent US20260274955A1.

tested target: Anti-CD28 Fab (SEQ ID NOs: 202, 203)
Sequence (VH, as listed by the source, chain 1 of 2): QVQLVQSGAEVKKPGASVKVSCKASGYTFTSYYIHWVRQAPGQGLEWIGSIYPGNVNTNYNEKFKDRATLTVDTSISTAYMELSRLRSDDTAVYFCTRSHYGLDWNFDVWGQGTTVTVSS
Sequence (VL, as listed by the source, chain 2 of 2): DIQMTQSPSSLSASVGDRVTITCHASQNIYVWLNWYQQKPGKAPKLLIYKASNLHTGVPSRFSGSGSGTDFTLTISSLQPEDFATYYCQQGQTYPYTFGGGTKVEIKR
protocol details: phage binding ELISA on captured Fab; competitor CD28 antigen;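 further: wells pretreated with CD28 antigen in blocking buffer or buffer only, then clonal phage supernatants added briefly without washing, bound phage detected via horseradish-conjugated anti-M13 antibody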
This section presents binders with their documented Anti-CD28 Fab signal in the presence of CD28 values.
outcome measure: Anti-CD28 Fab signal in the presence of CD28

binder: YCEGHLPQYMKKCL [Phage-144]
endpoint result: 0.1
--
binder: YCEGHLPEYIWKCL [Phage-43]
endpoint result: 0.09
--
binder: YCDGHLPEYLAKCL [Phage-64]
endpoint result: 0.11
--
binder: YCEGHLPEYMAKCL [Phage-57]
endpoint result: 0.14
--
binder: YCDGHLPQYMAQCL [Phage-59]
endpoint result: 0.2
--
binder: YCDGHLPEYMNKCL [Phage-52]
endpoint result: 0.13
--
binder: YCDGHSPQYIEKCL [Phage-92]
endpoint result: 0.07
